# targetSystem: MaxL homodimer (Homo sapiens, UniProt P61244 1-160)
# Sequence (P61244 whole entry): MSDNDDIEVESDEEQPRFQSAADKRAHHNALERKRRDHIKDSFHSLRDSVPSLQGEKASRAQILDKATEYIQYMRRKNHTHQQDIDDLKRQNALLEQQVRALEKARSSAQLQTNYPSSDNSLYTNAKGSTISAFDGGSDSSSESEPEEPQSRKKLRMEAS
# measurementNotes: universal protein-binding microarray (PBM); PBS-based mixture, 10 nM His-tagged protein dimer, 2% milk, 200 ng/uL BSA, 50 ng/uL salmon testes DNA, 0.02% TX-100; detection with Alexa 488 anti-His antibody;; high values mean tight binding;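 further: fluorescence intensity normalized to that of the highest-ranked 8-mer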
# protocolConditions: protein: recombinant; tags: C-terminal His-tag (pET21a); chain copies: 2; dsDNA, one strand shown
The full ranking holds about 33,000 sequences; the median of “normalized occupancy” is about 0.075, and the highest 2% start at about 0.095. Only a selection was taken, and the highest values are over-represented in it overall.
Short version: binding signal at least 0.08 normalized occupancy is yes, less is no.

As a guide, the following entries are already answered.
{"residueSequence": "GTCGCGCA", "targetSystem": "MaxL homodimer (Homo sapiens, UniProt P61244 1-160)", "category": "no"}
{"residueSequence": "GTTCTAGA", "targetSystem": "MaxL homodimer (Homo sapiens, UniProt P61244 1-160)", "category": "no"}
{"residueSequence": "AAGACATG", "targetSystem": "MaxL homodimer (Homo sapiens, UniProt P61244 1-160)", "category": "yes"}
{"residueSequence": "GACATTGC", "targetSystem": "MaxL homodimer (Homo sapiens, UniProt P61244 1-160)", "category": "no"}

Kindly consider the entry below.
Quick check, binding signal >= 0.08 normalized occupancy? GTACGGGA
no
